We use 1 as the dividing line for logP: on or above the line is true, below is false.

Answered cases to consult:
| smiles.structure | class |
| --- | --- |
| O=C(O)COc1ccc(O)cc1 | false |
| O=C(O)c1cccc(C(=O)O)c1 | true |

Asked: Can O=C(O)COc1ccc2c(c1)CCC2 be said to have logP at or above 1?
Given back: true

Asked: Would you kindly repeat that for O=C(O)Cc1ccc(Br)cc1 ?
Given back: true

Asked: Would you kindly repeat that for O=C(O)COc1cccc(O)c1 ?
Given back: false

Asked: Would you kindly repeat that for CN(C)c1cccc(O)c1 ?
Given back: true

====

Some compounds, each annotated with its measured logP.

Check out these entries, answers already filled in.
| smiles.structure | assay.value |
| --- | --- |
| OCc1cccc(Cl)c1 | 1.94 |
| O=C(O)COc1ccc(C2CCCC2)cc1 | 3.41 |
| O=C(O)COc1cccc(S(F)(F)(F)(F)F)c1 | 2.78 |
| O=[N+]([O-])c1cccc(Br)c1 | 2.64 |

Consider the record given below.
Asked: If you can, please state the reported logP value of Oc1ccccc1Br .
Given back: 2.35

====

Rule: logP below 2 gives Fulfilled, anything at or above gives Not fulfilled.

Answered cases to consult:
| molecule | class |
| --- | --- |
| COc1ccc(OCC(=O)O)cc1 | Fulfilled |
| O=C(O)Cc1cccc([N+](=O)[O-])c1 | Fulfilled |
| O=C(O)COc1cccc(OC(F)(F)F)c1 | Not fulfilled |

Asked: Quick check: does COc1cccc(OCC(=O)O)c1 have logP under 2?
Given back: Fulfilled

Asked: Would you kindly repeat that for O=C(O)COc1ccc(N=Nc2ccccc2)cc1 ?
Given back: Not fulfilled

Asked: Would you kindly repeat that for CC(=O)c1cccc([N+](=O)[O-])c1 ?
Given back: Fulfilled

Asked: Would you kindly repeat that for CCC(C)c1ccc(OCC(=O)O)cc1 (stereo not drawn) ?
Given back: Not fulfilled

====

parameter: logP
Output spec: single numeric token, no unit.

Asked: If you can, please state the reported logP value of N#Cc1cccc(C(=O)O)c1 .
Given back: 1.48

Asked: Would you kindly repeat that for CC(=O)Nc1cccc(OCC(=O)O)c1 ?
Given back: 0.48

Asked: Would you kindly repeat that for Nc1cccc(F)c1 ?
Given back: 1.3

Asked: Would you kindly repeat that for COc1ccc(CO)cc1 ?
Given back: 1.1

Asked: Would you kindly repeat that for CCc1cccc(O)c1 ?
Given back: 2.4

Asked: Would you kindly repeat that for O=C(O)COc1ccc([N+](=O)[O-])cc1 ?
Given back: 1.48

Asked: Would you kindly repeat that for O=C(O)c1ccc(Br)cc1 ?
Given back: 2.86

Asked: Would you kindly repeat that for CC(C)(C)c1cccc(OCC(=O)O)c1 ?
Given back: 2.96

Asked: Would you kindly repeat that for Oc1ccccc1F ?
Given back: 1.71

Asked: Would you kindly repeat that for CSc1cccc(OCC(=O)O)c1 ?
Given back: 1.9
